Test system: RSV A strain A2
test-description: Antiviral activity against RSV A strain A2 in HEp-2 cells (ELISA virus titer)
Assay type: cell-based, respiratory syncytial virus
recorded-metric: SI (selective index)

**Query** Bench note: what SI (selective index) did CC1(C)C2CC=C(COc3ccc4c(-c5ccccc5)cc(=O)oc4c3)C1C2 (stereo not drawn) [Compound 14c] show?
**Result** 3.5

**Query** Bench note: what SI (selective index) did CC1(C)C2CC=C(COc3ccc4c(-c5ccc(F)cc5)cc(=O)oc4c3)C1C2 (stereo not drawn) [Compound 16b] show?
**Result** 2.9

**Query** Bench note: what SI (selective index) did O=c1cc(-c2ccc(F)cc2)c2ccc(OCc3ccccc3)cc2o1 [Compound 16g] show?
**Result** <0.9

**Query** Bench note: what SI (selective index) did `CC1(C)[C@H]2CC=C(CCNc3ccc4c(-c5ccccc5)cc(=O)oc4c3)[C@@H]1C2` show?
**Result** 6

**Query** Bench note: what SI (selective index) did COc1ccc(-c2cc(=O)oc3cc(OCC4=CCC5CC4C5(C)C)ccc23)cc1 (stereo not drawn) [Compound 17b] show?
**Result** <1

**Query** Bench note: what SI (selective index) did CC1(C)C2CC=C(COc3ccc4c(-c5ccc(Br)cc5)cc(=O)oc4c3)C1C2 (stereo not drawn) [Compound 15b] show?
**Result** 3

----------
System: RSV A strain A2
test-description: Antiviral activity against RSV A strain A2 in HEp-2 cells (ELISA virus titer)
Format: cell-based, respiratory syncytial virus
recorded-metric: SI (selective index)
Please state the value as a number alone, without comment.

**Query** Bench note: what SI (selective index) did CC1(C)C2CC=C(CCOc3ccc4c(-c5ccccc5)cc(=O)oc4c3)C1C2 (centres unmarked) [Compound 14d] show?
**Result** 7.9

**Query** Bench note: what SI (selective index) did CC1(C)[C@H]2CC=C(CCCCOc3ccc4c(-c5ccccc5)cc(=O)oc4c3)[C@@H]1C2 [Compound 14f] show?
**Result** 11.4

**Query** Bench note: what SI (selective index) did COc1ccc(-c2cc(=O)oc3cc(OCCC4=CCC5CC4C5(C)C)ccc23)cc1 (centres unmarked) [Compound 17d] show?
**Result** 10.6

**Query** Bench note: what SI (selective index) did O=c1cc(-c2ccc(Br)cc2)c2ccc(OCc3ccccc3)cc2o1 [Compound 15g] show?
**Result** 3.2

**Query** Bench note: what SI (selective index) did CC(C)=CCC/C(C)=C/COc1ccc2c(-c3ccc(F)cc3)cc(=O)oc2c1 [Compound 16a] show?
**Result** 5.8

**Query** Bench note: what SI (selective index) did CC1(C)C2CC=C(COc3ccc4c(-c5ccc(Br)cc5)cc(=O)oc4c3)C1C2 (centres unmarked) [Compound 15c] show?
**Result** 1.9

----------
test-description: Cytotoxicity on non-infected HEp-2 cells, MTT assay
Format: cell-based
run-conditions: human, non-infected HEp-2 cells, CC50 (50% cytotoxic concentration), MTT, 24 h
What CC50 at 24 h was measured for each of the following?
Form entry: value (µM) — number only.

**Query** Bench note: what CC50 at 24 h did CC1(C)C2CC=C(CCOc3ccc4c(-c5ccc(Br)cc5)cc(=O)oc4c3)C1C2 (stereo not shown) [Compound 15d] show?
**Result** 17.2

**Query** Bench note: what CC50 at 24 h did COc1ccc(-c2cc(=O)oc3cc(OCC4=CCC5CC4C5(C)C)ccc23)cc1 (stereo not shown) [Compound 17b] show?
**Result** 12.4

**Query** Bench note: what CC50 at 24 h did CC1(C)C2CC=C(COc3ccc4c(-c5ccccc5)cc(=O)oc4c3)C1C2 (stereo not shown) [Compound 14b] show?
**Result** 591

**Query** Bench note: what CC50 at 24 h did CC(C)=CCC/C(C)=C/COc1ccc2c(-c3ccccc3)cc(=O)oc2c1 [Compound 14a] show?
**Result** 805

**Query** Bench note: what CC50 at 24 h did CC(C)=CCC/C(C)=C/COc1ccc2c(-c3ccc(F)cc3)cc(=O)oc2c1 [Compound 16a] show?
**Result** 273

**Query** Bench note: what CC50 at 24 h did CC1(C)[C@H]2CC=C(CCCCOc3ccc4c(-c5ccc(F)cc5)cc(=O)oc4c3)[C@@H]1C2 [Compound 16f] show?
**Result** 109

**Query** Bench note: what CC50 at 24 h did CC1(C)[C@H]2CC=C(CCCCOc3ccc4c(-c5ccc(Br)cc5)cc(=O)oc4c3)[C@@H]1C2 [Compound 15f] show?
**Result** 91.3

**Query** Bench note: what CC50 at 24 h did COc1ccc(-c2cc(=O)oc3cc(OCCCCC4=CC[C@H]5C[C@@H]4C5(C)C)ccc23)cc1 [Compound 17f] show?
**Result** 117

**Query** Bench note: what CC50 at 24 h did COc1ccc(-c2cc(=O)oc3cc(OCc4ccccc4)ccc23)cc1 [Compound 17g] show?
**Result** 16.8

**Query** Bench note: what CC50 at 24 h did `CC1(C)[C@H]2CC=C(CNc3ccc4c(-c5ccccc5)cc(=O)oc4c3)[C@@H]1C2` show?
**Result** 20.5

**Query** Bench note: what CC50 at 24 h did CC1(C)[C@H]2CC=C(CCCOc3ccc4c(-c5ccc(Br)cc5)cc(=O)oc4c3)[C@@H]1C2 [Compound 15e] show?
**Result** 12.5

**Query** Bench note: what CC50 at 24 h did COc1ccc(-c2cc(=O)oc3cc(OC/C=C(\C)CCC=C(C)C)ccc23)cc1 [Compound 17a] show?
**Result** 339

**Query** Bench note: what CC50 at 24 h did COc1ccc(-c2cc(=O)oc3cc(OCCC4=CCC5CC4C5(C)C)ccc23)cc1 (stereo not shown) [Compound 17d] show?
**Result** 677

**Query** Bench note: what CC50 at 24 h did CC1(C)C2CC=C(CCOc3ccc4c(-c5ccccc5)cc(=O)oc4c3)C1C2 (stereo not shown) [Compound 14d] show?
**Result** 657

**Query** Bench note: what CC50 at 24 h did CC1(C)C2CC=C(COc3ccc4c(-c5ccc(Br)cc5)cc(=O)oc4c3)C1C2 (stereo not shown) [Compound 15b] show?
**Result** 46.6
